Protocol text: soluble on expression in E. coli; label from the status in PepcDB or PDB records
Endpoint name: soluble on expression in E. coli

Solved entries (count: 4):
{"columns": ["Sequence content", "soluble on expression in E. coli"],
 "data": [
  ["MGSDKIHHHHHHMPAKTLYCATLASLNGLSDNRNATGISFIFQGGAVEEMQKVLVNEKGMAWITCEKCSHTSGIDVSRLSDRAPFIRYKCVKCDAEFDVACEFRKSYRKEVHLNGVFIQQQPREDYAGRIEILDISKTGVRFKTRVKFDFKPGYLLKLSFSLDDAKKTNINQTVEVKWVNGQLVGGEFRNQDHWTSQQLGFYFMS", "not soluble"],
  ["MGSDKIHHHHHHMKIAIASGKGGTGKTTVAVNFAQVLAAAGQEVTLLDCDVEEPNVHLFLHPEFDSVSAVETTIPQVDEEKCTGCRVCAEVCEYHALAVLGKNVLVFPELCHACGACVRFCPEEAIVEIPREIGTIRKGRKGKIRLIEGRLNVGEVMSPAVIERVKKIGLDGKIGIIDAPPGTSCPVIAAVRDTDGVLLVTEPTPFGLYDLKLAVGMVRLLGIPCAVAINRSDLGEKELWRYCSDERIPIILEIPNDRRIAEAYSRGRTIIEELPEYREKFLQGWQALLESCSIA", "not soluble"],
  ["MWYGLGLAFLGGIFRIFPFDMEHTITRQIFCPWLFAFSMTRKQFQGRKPYNYLASFLLFQCRLKESFHGQLVKPIVSWNLWTHRYHNGCFR", "not soluble"],
  ["SSNFSSERIRYAKWFLEHGFNIIPIDPESKKPVLKEWQKYSHEMPSDEEKQRFLKMIEEGYNYAIPGGQKGLVILDFESKEKLKAWIGESALEELCRKTLCTNTVHGGIHIYVLSNDIPPHKINPLFEENGKGIIDLQSYNSYVLGLGSCVNHLHCTTDKCPWKEQNYTTCYTLYNELKEISKVDLKSLLRFLAEKGKRLGITLSKTAKEWLEGKKEEEDTVVEFEELRKELVKRDSGKPVEKIKEEICTKSPPKLIKEIICENKTYADVNIDRSRGDWHVILYLMKHGVTDPDKILELLPRDSKAKENEKWNTQKYFVITLSKAWSVVKKYLEA", "soluble"]
]}

Look up soluble on expression in E. coli for this sequence: MMKKYLISLAKDQQRREQFFTQADTADFQVFDAVNTMQQEWDSLAVKYDITQFAQRYQRSVTKGEIGCTLSHLGVYQWIVADPQIGDNDYCLVCEDDALFNQDVQSSLTQLLSQNVHADIVLVGQSKIFGFDDAMLEIEYPTTFAPQMVAIGNSIYRYAYPYKNYYAGTVAYLIKKSTARKLVSITDLPFWLADDFILFEQQFGLDIMVVRPLMAIENPALCSNLETARASTQQALSKKLLKYPFKKWLAIQRNIGLKNDQCGNLEHHHHHH
not soluble

Look up soluble on expression in E. coli for this sequence: MPVFVKLTGGSIGLQAGVQSSDVVLVFRNDRNLDNIVNGKFTLGADASVAAGPVGRNALAATDSELKAEIYSWSTARGLFAGIALDGAALQIDDSANLDVYGKGTTPRMIFEGRTAEPPSSDVIAFRDRLEEVTYTARNNLEHHHHHH
soluble

Look up soluble on expression in E. coli for this sequence: MSDDALSRIAAALERMSPPPMPAPDFSAVDAFAWHTSPDRLEPVPRVARVDLSLLVGVNRARDILLDNTEHFARGLPANNALLWGSRGMGKSSLVKAIHAAVVAKGLPLKIVELSREDLPSVQRLLKHLRGAPFRFILFCDDLSFSHDDQHYKSLKAVLDGGIEGRPENVILYATSNRRHLMPRDMIENERSTAISPSEAVEEKVSLSDRFGLWLGFHPCSQDEYLEMIRGYCAAHGLSVAEEELRAEAIEWQATRGARSGRVAWQFFTDLAARHGVALLEHHHHHH
not soluble

Look up soluble on expression in E. coli for this sequence: MITIITQDQLKTSPSVREDGRAFDELRPLKIEAGILERADGSSYLEFGGNKILVAVYGPREAQIRKLQRPDRAVIRCRYNMAPFSVEERKRPGPDRRSVEISKITAEALRPALILEKFPRSVIDVFIEVLEAEGGTRCAGITAASVALADAGIPMRDMVVACAAGKVGDQVVLDLSEEEDKEGQADVPVAILPRTREITLLQSDGNLTPEEFERALDLAVEGCLRIHEVQKEALRKRYGE
soluble

Look up soluble on expression in E. coli for this sequence: MIRELFEKEGFTLDEEQERKFSIYLQELLRWNKVHNLTSIKKPEEIVRRHFIDSVSVVRCFERIGLDLRGKHFADVGSGAGFPGVPLKIYLKDIKLTLIESVSKKCSFLEYLKIKLNEDYRVLCTRAEKVEEKFDVVLARALGEFEEVKEILEKLSIGYVFVYKGSKLKEEWLKDYKLCELSLSFMPKSYILWKKV
soluble
